Read-out record for DU-145: GI50

Use these answered entries as a reference point.
COc1ccc(S(=O)(=O)Nc2c(/C=C\c3cc(OC)c(OC)c(OC)c3)ccc(OC)c2O)cc1 [17a] | 0.0425 µM
COc1ccc(S(=O)(=O)Nc2cc(/C=C\c3cc(OC)c(OC)c(OC)c3)cc(OC)c2OC)cc1 [13a] | 0.0416 µM
COc1ccc(S(=O)(=O)Nc2cc(/C=C\c3cc(OC)c(OC)c(OC)c3)ccc2OC)cc1 [12a] | 0.341 µM
COc1ccc(/C=C\c2cc(OC)c(OC)c(OC)c2)c(NS(=O)(=O)c2ccc(Cl)cc2)c1O [17c] | 0.2 µM

Query string: Using DU-145 as the test system, report measured GI50 of COc1cc(/C=C\c2cc(OC)c(OC)c(OC)c2)cc(NS(=O)(=O)c2ccc(Cl)cc2)c1OC [13c] .
Result string: 0.507 µM

###

- Test system: HCT-15
With a cut-off of 50 nM, any GI50 strictly below it is called Criterion met; any GI50 meeting it or above is called Criterion not met.

Here's what some known entries look like.
COc1ccc(S(=O)(=O)Nc2cc(/C=C\c3cc(OC)c(OC)c(OC)c3)cc(OC)c2OC)cc1 [13a] | Criterion met
COc1cc(/C=C\c2cc(OC)c(OC)c(OC)c2)cc(NS(=O)(=O)c2ccc(Cl)cc2)c1OC [13c] | Criterion not met
COc1ccc(/C=C\c2cc(OC)c(OC)c(OC)c2)c(NS(=O)(=O)c2ccc(Cl)cc2)c1O [17c] | Criterion not met

Query string: Say whether its GI50 is strictly beneath 50 nM. Entry: COc1ccc(S(=O)(=O)Nc2cc(/C=C\c3cc(OC)c(OC)c(OC)c3)ccc2OC)cc1 [12a]
Result string: Criterion not met

Query string: Given COc1ccc(S(=O)(=O)Nc2c(/C=C\c3cc(OC)c(OC)c(OC)c3)ccc(OC)c2O)cc1 [17a] , is recorded GI50 strictly lower than 50 nM?
Result string: Criterion met

###

- Test system: HL-60(TB)
- ASSAY SUMMARY: In vitro cytotoxicity (NCI protocol, SRB), HL-60(TB)
- Assay type: cell-based
- TEST CONDITIONS: Homo sapiens, Leukemia HL-60(TB), 48 h exposure
Labelling field: enter class 1 if recorded GI50 is less than 30 nM. Enter class 0 if it equals or exceeds that cut-off.

COc1ccc(S(=O)(=O)Nc2c(/C=C\c3cc(OC)c(OC)c(OC)c3)ccc(OC)c2O)cc1 [17a] | class 1
COc1ccc(/C=C\c2cc(OC)c(OC)c(OC)c2)c(NS(=O)(=O)c2ccc(Cl)cc2)c1O [17c] | class 0

Query string: Does COc1cc(/C=C\c2cc(OC)c(OC)c(OC)c2)cc(NS(=O)(=O)c2ccc(Cl)cc2)c1OC [13c] have GI50 strictly under 30 nM?
Result string: class 0

Query string: Just wondering, is GI50 of COc1ccc(S(=O)(=O)Nc2cc(/C=C\c3cc(OC)c(OC)c(OC)c3)ccc2OC)cc1 [12a] below 30 nM?
Result string: class 0

Query string: Determine whether this compound shows GI50 lower than 30 nM (ties excluded): COc1ccc(S(=O)(=O)Nc2cc(/C=C\c3cc(OC)c(OC)c(OC)c3)cc(OC)c2OC)cc1 [13a]
Result string: class 1
